All values here come from ChEMBL document CHEMBL2331353.

targetOrSystem: Prostaglandin G/H synthase 2 (Homo sapiens)
Sequence (P35354 whole entry): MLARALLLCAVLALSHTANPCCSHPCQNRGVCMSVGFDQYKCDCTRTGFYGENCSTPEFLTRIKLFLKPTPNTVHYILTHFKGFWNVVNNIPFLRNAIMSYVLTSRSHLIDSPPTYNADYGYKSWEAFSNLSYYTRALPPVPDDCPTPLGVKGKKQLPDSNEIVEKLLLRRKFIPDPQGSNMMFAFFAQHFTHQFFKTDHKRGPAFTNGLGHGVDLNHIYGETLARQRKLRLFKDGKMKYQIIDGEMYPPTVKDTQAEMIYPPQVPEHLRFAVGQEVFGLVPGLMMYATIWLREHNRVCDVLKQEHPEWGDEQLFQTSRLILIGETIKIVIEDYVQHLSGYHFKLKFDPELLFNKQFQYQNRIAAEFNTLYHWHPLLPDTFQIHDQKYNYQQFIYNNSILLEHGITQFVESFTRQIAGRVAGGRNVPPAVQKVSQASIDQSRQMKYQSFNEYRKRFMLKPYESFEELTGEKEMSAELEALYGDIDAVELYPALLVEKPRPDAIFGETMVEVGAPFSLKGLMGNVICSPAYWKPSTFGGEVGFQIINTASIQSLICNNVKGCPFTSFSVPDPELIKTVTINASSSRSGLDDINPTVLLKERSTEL
pIC50: −log10 of the molar value.
reportedMetric: pIC50

The examples below pair each entry with its known result.
INSERT INTO measurements (compound, reportedmetric, result) VALUES
  ('CCNC(=O)/C=C/c1c(/C=C/c2ccc(OC)cc2)cc(OC)cc1OC', 'pIC50', 4.91),
  ('COc1ccc(/C=C/c2cc(OC)cc(OC)c2/C=C/C(=O)N2CCC(C)CC2)cc1', 'pIC50', 4.99),
  ('COc1ccc(/C=C/c2cc(OC)cc(OC)c2/C=C/C(=O)NC(C)C)cc1', 'pIC50', 5.70),
  ('CCCCN(CCCC)C(=O)/C=C/c1c(/C=C/c2ccc(OC)cc2)cc(OC)cc1OC', 'pIC50', 5.00),
  ('COc1ccc(/C=C/c2cc(OC)cc(OC)c2/C=C/C(=O)N2CCN(C)CC2)cc1', 'pIC50', 5.24),
  ('C=CCN(CC=C)C(=O)/C=C/c1c(/C=C/c2ccc(OC)cc2)cc(OC)cc1OC', 'pIC50', 5.10),
  ('COc1ccc(/C=C/c2cc(OC)cc(OC)c2/C=C/C(=O)N2CCC(Cl)CC2)cc1', 'pIC50', 5.84),
  ('CCC(C)NC(=O)/C=C/c1c(/C=C/c2ccc(OC)cc2)cc(OC)cc1OC (configuration not stated)', 'pIC50', 5.34);

P. COc1ccc(/C=C/c2cc(OC)cc(OC)c2/C=C/C(=O)N2CC(C)CC(C)C2)cc1 (configuration not stated)
Q. COc1ccc(/C=C/c2cc(OC)cc(OC)c2/C=C/C(=O)Nc2cc(OC)c(OC)c(OC)c2)cc1
R. CCCCNC(=O)/C=C/c1c(/C=C/c2ccc(OC)cc2)cc(OC)cc1OC
S. CCCCCN(CCCCC)C(=O)/C=C/c1c(/C=C/c2ccc(OC)cc2)cc(OC)cc1OC
Ordering criterion: pIC50; begin with the maximum. Give your ranking as a list of the labels in the requested order. R, P, Q, S
(R: 5.99, P: 5.70, Q: 5.18, S: 4.78)

a. CCCCCCNC(=O)/C=C/c1c(/C=C/c2ccc(OC)cc2)cc(OC)cc1OC
b. CCN(CC)C(=O)/C=C/c1c(/C=C/c2ccc(OC)cc2)cc(OC)cc1OC
Kindly identify the item with the lower pIC50 figure among these two: a and b Choose, then provide that item's label. a

====

pIC50: −log10 of the molar value.
Prostaglandin G/H synthase 1 (Homo sapiens): recorded pIC50 for assorted molecules
Sequence (P23219 whole entry): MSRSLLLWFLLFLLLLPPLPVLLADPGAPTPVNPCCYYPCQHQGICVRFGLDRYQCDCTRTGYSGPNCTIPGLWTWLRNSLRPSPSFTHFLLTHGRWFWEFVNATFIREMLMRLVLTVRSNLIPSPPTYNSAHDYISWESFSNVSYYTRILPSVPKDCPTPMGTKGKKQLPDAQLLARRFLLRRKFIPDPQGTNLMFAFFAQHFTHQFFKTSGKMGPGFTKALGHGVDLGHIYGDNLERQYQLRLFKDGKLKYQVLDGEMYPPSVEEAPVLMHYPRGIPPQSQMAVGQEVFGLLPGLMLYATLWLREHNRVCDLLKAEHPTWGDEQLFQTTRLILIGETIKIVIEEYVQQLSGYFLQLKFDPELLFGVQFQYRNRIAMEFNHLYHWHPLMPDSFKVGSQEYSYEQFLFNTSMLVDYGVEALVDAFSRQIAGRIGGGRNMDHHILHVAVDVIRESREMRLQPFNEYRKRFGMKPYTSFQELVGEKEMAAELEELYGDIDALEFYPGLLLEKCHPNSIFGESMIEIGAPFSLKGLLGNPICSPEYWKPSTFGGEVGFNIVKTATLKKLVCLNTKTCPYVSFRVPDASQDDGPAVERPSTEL

INSERT INTO assay_data (molecule, targetorsystem, reportedmetric, result) VALUES
  ('COc1ccc(/C=C/c2cc(OC)cc(OC)c2/C=C/C(=O)N2CCCCC2)cc1', 'Prostaglandin G/H synthase 1 (Homo sapiens)', 'pIC50', '< 4.30'),
  ('CCN(CC)C(=O)/C=C/c1c(/C=C/c2ccc(OC)cc2)cc(OC)cc1OC', 'Prostaglandin G/H synthase 1 (Homo sapiens)', 'pIC50', '< 4.30'),
  ('COc1ccc(/C=C/c2cc(OC)cc(OC)c2/C=C/C(=O)NC2CCCCC2)cc1', 'Prostaglandin G/H synthase 1 (Homo sapiens)', 'pIC50', '< 4.30');

Please indicate recorded pIC50 of C=CCN(CC=C)C(=O)/C=C/c1c(/C=C/c2ccc(OC)cc2)cc(OC)cc1OC measured with Prostaglandin G/H synthase 1 (Homo sapiens). 4.46

Please indicate recorded pIC50 of CCCN(CCC)C(=O)/C=C/c1c(/C=C/c2ccc(OC)cc2)cc(OC)cc1OC measured with Prostaglandin G/H synthase 1 (Homo sapiens). 4.34

Please indicate recorded pIC50 of CCCNC(=O)/C=C/c1c(/C=C/c2ccc(OC)cc2)cc(OC)cc1OC measured with Prostaglandin G/H synthase 1 (Homo sapiens). < 4.30

Please indicate recorded pIC50 of COc1ccc(/C=C/c2cc(OC)cc(OC)c2/C=C/C(=O)Nc2cc(OC)c(OC)c(OC)c2)cc1 measured with Prostaglandin G/H synthase 1 (Homo sapiens). < 4.30
